The reported measurements were obtained from ChEMBL document CHEMBL3352491.

Experiment: Antioxidant activity assessed as inhibition of lipid peroxidation at 100 uM by spectrophotometry
Format: physicochemical
endpoint: inhibition (INH)

Q. Given the entry COc1cc(NC(C)CCCNC(=O)NNC(=O)NCCO)c2ncccc2c1 (stereo not given) , report its measured inhibition (INH).
A. 27%

Q. Any idea what inhibition (INH) was measured for COc1cc(NC(C)CCCNC(=O)NNC(=O)NC(CO)(CO)CO)c2ncccc2c1 (stereo not given) ?
A. 49%

Q. What does the data say about its inhibition (INH)? Entry: CCOC(=O)NC(c1ccccc1)c1ccc(Cl)cc1 (stereo not given)
A. 21%

Q. Param item = COc1cc(NC(C)CCCNC(=O)NNC(=O)Nc2ccc(Cl)c(C(F)(F)F)c2)c2ncccc2c1 (stereo not given) ; retrieve measured inhibition (INH).
A. 63%

Q. Which inhibition (INH) is reported for this compound? O=C(NC(c1ccccc1)c1ccc(Cl)cc1)NC(c1ccccc1)c1ccc(Cl)cc1 (stereo not given)
A. 33%

Q. Quick check: inhibition (INH) of COc1cc(NC(C)CCCNC(=O)N(C)C(c2ccccc2)c2ccccc2)c2ncccc2c1 (stereo not given) ?
A. 79%

Q. Need inhibition (INH) of COc1cc(NC(C)CCCNC(=O)NNC(=O)NCCCCCO)c2ncccc2c1 (stereo not given) , thanks.
A. 54%

Q. I'd like to know its inhibition (INH). The compound in question is COc1cc(NC(C)CCCNC(=O)NNC(=O)NCCNC(c2ccccc2)(c2ccccc2)c2ccccc2)c2ncccc2c1 (stereo not given)
A. 88%

Q. Reported inhibition (INH), compound COc1ccc(/C(=N/NC(=O)NCCCC(C)Nc2cc(OC)cc3cccnc23)c2ccccc2)cc1 (stereo not given) : ____
A. 77%

====

Assay: Antioxidant activity assessed as inhibition of lipid peroxidation at 100 uM by spectrophotometry
Format: physicochemical
Hi there, I'd appreciate the recorded inhibition (INH) for every entry that follows.
Respond with the bare value in %.

Q. Name the recorded inhibition (INH) for COc1cc(NC(C)CCCNC(=O)Nc2ccc(Cl)c(C(F)(F)F)c2)c2ncccc2c1 (centres undefined) .
A. 61

Q. So what does the record say about inhibition (INH) for COc1cc(NC(C)CCCNC(=O)NNC(=O)NCCCO)c2ncccc2c1 (centres undefined) ?
A. 45

Q. inhibition (INH) lookup needed for COc1cc(NC(C)CCCNC(=O)NCCNC(c2ccccc2)(c2ccccc2)c2ccccc2)c2ncccc2c1 (centres undefined) , thanks.
A. 89

Q. Query: inhibition (INH); subject: COc1cc(NC(C)CCCNC(=O)NNC(=O)N(CCO)CCO)c2ncccc2c1 (centres undefined)
A. 43

Q. # inhibition (INH) lookup, item COc1cc(NC(C)CCCNC(=O)NNC(=O)NCCCC(C)Nc2cc(OC)cc3cccnc23)c2ncccc2c1 (centres undefined)
A. 65

Q. Sample COc1ccc(C(=NNC(=O)NNC(=O)NCCCC(C)Nc2cc(OC)cc3cccnc23)c2ccc(OC)cc2)cc1 (centres undefined) — what was its inhibition (INH)?
A. 82

Q. Which inhibition (INH) reading was recorded for the molecule COc1ccc(/C(=N/NC(=O)NNC(=O)NCCCC(C)Nc2cc(OC)cc3cccnc23)c2ccccc2)cc1 (centres undefined) ?
A. 78

Q. I'd like to know its inhibition (INH). The molecule in question is O=C1NCCN1C(c1ccccc1)(c1ccccc1)c1ccccc1
A. 20

Q. Which inhibition (INH) value belongs to COc1cc(NC(C)CCCNC(=O)NC(c2ccccc2)c2ccc(Cl)cc2)c2ncccc2c1 (centres undefined) ?
A. 90

Q. # input molecule: COc1cc(NC(C)CCCNC(=O)NCCCC(C)Nc2cc(OC)cc3cccnc23)c2ncccc2c1 (centres undefined) ; wanted: its inhibition (INH)
A. 89

Q. Report inhibition (INH) for O=C(NC(c1ccccc1)c1ccc(Cl)cc1)n1nnc2ccccc21 (centres undefined) please.
A. 63

Q. Returns the measured inhibition (INH) for the input molecule. Input: Cc1c(C)c2c(c(C)c1O)CCC(C)(C(=O)O)O2 (centres undefined) [TROLOX]
A. 63

Q. Item CN(C(=O)NN)C(c1ccccc1)c1ccccc1 has what recorded inhibition (INH)?
A. 7

Q. Form field: reported inhibition (INH) of COc1cc(NC(C)CCCNC(=O)NN)c2ncccc2c1 (centres undefined)
A. 70

Q. Which inhibition (INH) value belongs to NNC(=O)NC(c1ccccc1)c1ccc(Cl)cc1 (centres undefined) ?
A. 52

Q. Can you look up the measured inhibition (INH) of CN(C(=O)n1nnc2ccccc21)C(c1ccccc1)c1ccccc1 for me?
A. 76

Q. Entry COc1cc(NC(C)CCCNC(=O)NNC(=O)NC(c2ccccc2)c2ccc(Cl)cc2)c2ncccc2c1 (centres undefined) : reported inhibition (INH) = ?
A. 77

Q. Which inhibition (INH) is reported for this molecule? COc1cc(NC(C)CCCNC(=O)NNC(=O)N(C)C(c2ccccc2)c2ccccc2)c2ncccc2c1 (centres undefined)
A. 69

Q. Recorded inhibition (INH) of COc1ccc(C(=NNC(=O)NCCCC(C)Nc2cc(OC)cc3cccnc23)c2ccc(OC)cc2)cc1 (centres undefined) , please.
A. 98

====

Assay: Cytostatic activity against human H460 cells assessed as growth inhibition after 3 to 4 days by MTT assay
Format: functional, cell-based
Settings: NCI-H460
Please go through the items and note down their pIC50.
# pIC50 = -log10(concentration in molar units)

Q. May I ask what pIC50 has been recorded for O=C(NC(c1ccccc1)c1ccc(Cl)cc1)n1nnc2ccccc21 (stereo not given) ?
A. 4.74

Q. Could you share which pIC50 value was measured for COc1cc(NC(C)CCCNC(=O)NNC(=O)NC(c2ccccc2)c2ccc(Cl)cc2)c2ncccc2c1 (stereo not given) ?
A. 5.52

Q. // lookup pIC50 for COc1cc(NC(C)CCCNC(=O)NNC(=O)N(C)C(c2ccccc2)c2ccccc2)c2ncccc2c1 (stereo not given)
A. 4.80

Q. Which pIC50 value belongs to CN(C(=O)n1nnc2ccccc21)C(c1ccccc1)c1ccccc1 ?
A. 4.57

Q. Sample COc1ccc(C(=NNC(=O)NNC(=O)NCCCC(C)Nc2cc(OC)cc3cccnc23)c2ccc(OC)cc2)cc1 (stereo not given) — what was its pIC50?
A. 5.30

Q. Quick one: pIC50 for COc1cc(NC(C)CCCNC(=O)NNC(=O)NCCCC(C)Nc2cc(OC)cc3cccnc23)c2ncccc2c1 (stereo not given) ?
A. 4.03

Q. So what does the record say about pIC50 for COc1cc(NC(C)CCCNC(=O)NNC(=O)Nc2ccc(Cl)c(C(F)(F)F)c2)c2ncccc2c1 (stereo not given) ?
A. 4.89

Q. Need pIC50 of COc1cc(NC(C)CCCNC(=O)Nc2ccc(Cl)c(C(F)(F)F)c2)c2ncccc2c1 (stereo not given) , thanks.
A. 4.55

Q. Given COc1cc(NC(C)CCCNC(=O)NNC(=O)NCCNC(c2ccccc2)(c2ccccc2)c2ccccc2)c2ncccc2c1 (stereo not given) , state its recorded pIC50.
A. 5.40

====

Experiment: Antioxidant activity assessed as DPPH scavenging activity at 100 uM after 60 mins by spectrophotometry
Format: physicochemical
Settings: 1 h
For each record, write down the corresponding Activity.
Dear colleague, please return just the value in %, with no unit written.

Q. Could you tell me which Activity is on file for COc1cc(NC(C)CCCNC(=O)NNC(=O)NC(c2ccccc2)c2ccc(Cl)cc2)c2ncccc2c1 (stereo not given) ?
A. 55

Q. Would you mind telling me what Activity value was observed for COc1cc(NC(C)CCCNC(=O)NNC(=O)NCCO)c2ncccc2c1 (stereo not given) ?
A. 20

Q. Sample COc1ccc(/C(=N/NC(=O)NNC(=O)NCCCC(C)Nc2cc(OC)cc3cccnc23)c2ccccc2)cc1 (stereo not given) — what was its Activity?
A. 64

Q. Which Activity reading was recorded for the molecule COc1cc(NC(C)CCCNC(=O)NNC(=O)NCCCC(C)Nc2cc(OC)cc3cccnc23)c2ncccc2c1 (stereo not given) ?
A. 37

====

Biological target: Lipoxygenase (Glycine max, UniProt Q39829)
Test: Inhibition of soybean LOX using sodium linoleate as substrate by spectrophotometry
Details: read-out: IC50
Please respond with reported pIC50 for every item in the list.
Conceptually, pIC50 converts a concentration in mol/L into minus its log10.

Q. Tell me reported pIC50 for COc1ccc(C(=NNC(=O)NCCCC(C)Nc2cc(OC)cc3cccnc23)c2ccc(OC)cc2)cc1 (stereo not given) , tested with Lipoxygenase (Glycine max, UniProt Q39829).
A. 4.22

Q. Provide the documented pIC50 with Lipoxygenase (Glycine max, UniProt Q39829) as the system for COc1ccc(/C(=N/NC(=O)NCCCC(C)Nc2cc(OC)cc3cccnc23)c2ccccc2)cc1 (stereo not given)
A. 4.22

Q. # get_value(readout= pIC50, system= Lipoxygenase (Glycine max, UniProt Q39829)) for COc1cc(NC(C)CCCNC(=O)NCCNC(c2ccccc2)(c2ccccc2)c2ccccc2)c2ncccc2c1 (stereo not given)
A. 4.03

Q. Form field - read-out: pIC50; system: Lipoxygenase (Glycine max, UniProt Q39829); submitted item: COc1ccc(C(=NNC(=O)NNC(=O)NCCCC(C)Nc2cc(OC)cc3cccnc23)c2ccc(OC)cc2)cc1 (stereo not given)
A. 4.12

Q. What reported pIC50 corresponds to COc1cc(NC(C)CCCNC(=O)NNC(=O)NC(c2ccccc2)c2ccc(Cl)cc2)c2ncccc2c1 (stereo not given) on Lipoxygenase (Glycine max, UniProt Q39829)?
A. 4.15

Q. Hello, I am looking for reported pIC50 with Lipoxygenase (Glycine max, UniProt Q39829) for COc1ccc(/C(=N/NC(=O)NNC(=O)NCCCC(C)Nc2cc(OC)cc3cccnc23)c2ccccc2)cc1 (stereo not given) . Could you help?
A. 4.22

Q. Under Lipoxygenase (Glycine max, UniProt Q39829): pIC50 value of COc1cc(NC(C)CCCNC(=O)NC(c2ccccc2)c2ccc(Cl)cc2)c2ncccc2c1 (stereo not given) ?
A. 4.24

Q. Tell me reported pIC50 for CC(Cc1ccc(O)c(O)c1)C(C)Cc1ccc(O)c(O)c1 (stereo not given) [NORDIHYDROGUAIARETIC ACID] , tested with Lipoxygenase (Glycine max, UniProt Q39829).
A. 4.55

Q. Requested read-out pIC50, target or system Lipoxygenase (Glycine max, UniProt Q39829), entry CN(C(=O)n1nnc2ccccc21)C(c1ccccc1)c1ccccc1
A. 4.06

Q. Provide value of pIC50 for this record tested with Lipoxygenase (Glycine max, UniProt Q39829): COc1cc(NC(C)CCCNC(=O)NNC(=O)NCCNC(c2ccccc2)(c2ccccc2)c2ccccc2)c2ncccc2c1 (stereo not given)
A. 4.00
